This collection of values is drawn from ChEMBL document CHEMBL3745595.

assay_explanation: Antioxidant activity assessed as reactive oxygen species scavenging activity
Assay type: physicochemical
measured_endpoint: Activity

O=c1c(O[C@@H]2O[C@H](CO)[C@H](O)[C@H](O)[C@H]2O)c(-c2ccc(O)cc2)oc2cc(O)cc(O)c12 [TRIFOLIN]	Active
C[C@@H]1O[C@@H](OC[C@H]2O[C@@H](Oc3c(-c4ccc(O)cc4)oc4c(CN5CCCC(O)C5=O)c(O)cc(O)c4c3=O)[C@H](O[C@@H]3O[C@@H](C)[C@H](O)[C@@H](O)[C@H]3O)[C@@H](O)[C@H]2O)[C@H](O)[C@H](O)[C@H]1O (some centres not stated)	Active
C[C@@H]1O[C@@H](OC[C@H]2O[C@@H](Oc3c(-c4ccc(O)c(O)c4)oc4c(CN5CCCC(O)C5=O)c(O)cc(O)c4c3=O)[C@H](O[C@@H]3O[C@@H](C)[C@H](O)[C@@H](O)[C@H]3O)[C@@H](O)[C@H]2O)[C@H](O)[C@H](O)[C@H]1O (some centres not stated)	Active
C[C@@H]1O[C@@H](OC[C@H]2O[C@@H](Oc3c(-c4ccc(O)c(O)c4)oc4cc(O)cc(O)c4c3=O)[C@H](O)[C@@H](O)[C@@H]2O)[C@H](O)[C@H](O)[C@H]1O [RUTIN]	Active
C[C@@H]1O[C@@H](O[C@H]2[C@H](Oc3c(-c4ccc(O)cc4)oc4cc(O)cc(O)c4c3=O)O[C@H](COC(=O)CC(C)(O)CC(=O)O)[C@H](O)[C@@H]2O)[C@H](O)[C@H](O)[C@H]1O (some centres not stated)	Active

Form: compound = O=c1cc(-c2ccc(O)cc2)oc2cc(O[C@@H]3O[C@H](CO)[C@@H](O)[C@H](O)[C@H]3O)cc(O)c12 [APIGETRIN] ; Activity = Active

Form: compound = C[C@@H]1O[C@@H](OC[C@H]2O[C@@H](Oc3c(-c4ccc(O)cc4)oc4cc(O[C@@H]5O[C@H](CO)[C@@H](O)[C@H](O)[C@H]5O)cc(O)c4c3=O)[C@H](O[C@@H]3O[C@@H](C)[C@H](O)[C@@H](O)[C@H]3O)[C@@H](O)[C@H]2O)[C@H](O)[C@H](O)[C@H]1O ; Activity = Active

Form: compound = C[C@@H]1O[C@@H](OC[C@H]2O[C@@H](Oc3c(-c4ccc(O)c(O)c4)oc4cc(O)cc(O)c4c3=O)[C@H](O)[C@@H](O)[C@H]2O)[C@H](O)[C@H](O)[C@H]1O ; Activity = Active

Form: compound = C[C@@H]1O[C@@H](OC[C@H]2O[C@@H](Oc3c(-c4ccc(O)c(O)c4)oc4cc(O[C@@H]5O[C@H](CO)[C@@H](O)[C@H](O)[C@H]5O)cc(O)c4c3=O)[C@H](O[C@@H]3O[C@@H](C)[C@H](O)[C@@H](O)[C@H]3O)[C@@H](O)[C@H]2O)[C@H](O)[C@H](O)[C@H]1O ; Activity = Active

Form: compound = C[C@@H]1O[C@@H](OC[C@H]2O[C@@H](Oc3c(-c4ccc(O)c(O)c4)oc4cc(O)cc(O)c4c3=O)[C@H](O[C@@H]3O[C@@H](C)[C@H](O)[C@@H](O)[C@H]3O)[C@@H](O)[C@H]2O)[C@H](O)[C@H](O)[C@H]1O ; Activity = Active

Form: compound = C[C@@H]1O[C@@H](OC[C@H]2O[C@@H](Oc3c(-c4ccc(O)cc4)oc4cc(O)cc(O)c4c3=O)[C@H](O[C@@H]3O[C@@H](C)[C@H](O)[C@@H](O)[C@H]3O)[C@@H](O)[C@H]2O)[C@H](O)[C@H](O)[C@H]1O ; Activity = Active

Form: compound = C[C@@H]1O[C@@H](O[C@H]2[C@H](Oc3c(-c4ccc(O)c(O)c4)oc4cc(O)cc(O)c4c3=O)O[C@H](COC(=O)CC(C)(O)CC(=O)O)[C@H](O)[C@@H]2O)[C@H](O)[C@H](O)[C@H]1O (some centres not stated) ; Activity = Active
